- System: opiate receptors
- Test name: Competition for tritiated Naloxon specific binding in rat brain membrane preparates
- Reported conditions: compound concentration 10⁻⁵ mol; tritiated Naloxon bond (1 nanomole) taken as 100 %
Measurement kind: residual tritiated specific bonds of Naloxon (%)
Could you give me the number in %? Just the number is fine.

Compound | Target or system | Result value
COc1ccc2c3c1O[C@H]1C(=NN)C=C[C@@]4(O)[C@@H](C2)N(C)CC[C@]314 [Oxycodeinone hydrazone, 14-OH-codeinone hydrazone] | opiate receptors | 13
CN1CC[C@]23c4c5ccc(O)c4O[C@H]2C(=NNC(N)=S)CC[C@@]3(O)[C@H]1C5 [Oxymorphone thiosemicarbazone, 14-OH dihydromorphine thiosemicarbazone] | opiate receptors | 0
CN1CC[C@]23c4c5ccc(O)c4O[C@H]2C(=NNc2ccc([N+](=O)[O-])cc2[N+](=O)[O-])CC[C@H]3[C@H]1C5 [Dihydromorphinone dinitrophenylhydrazone] | opiate receptors | 0.5
CN1CC[C@]23c4c5ccc(O)c4O[C@H]2C(=NNc2ccccc2)CC[C@H]3[C@H]1C5 [Dihydromorphinone phenylhydrazone] | opiate receptors | 10
CN1CC[C@]23c4c5ccc(O)c4O[C@H]2C(=NNc2ccc([N+](=O)[O-])cc2[N+](=O)[O-])CC[C@@]3(O)[C@H]1C5 [Oxymorphone dinitrophenylhydrazone] | opiate receptors | 1

IN: // query residual tritiated specific bonds of Naloxon value for entry CN1CC[C@]23c4c5ccc(O)c4O[C@H]2C(=NNC(N)=O)CC[C@H]3[C@H]1C5 [Dihydromorphinone semicarbazone]
OUT: 4

IN: // query residual tritiated specific bonds of Naloxon value for entry COc1ccc2c3c1O[C@H]1C(=NNC(N)=O)CC[C@H]4[C@@H](C2)N(C)CC[C@]314 [Dihydrocodeinone semicarbazone]
OUT: 9

IN: // query residual tritiated specific bonds of Naloxon value for entry COc1ccc2c3c1O[C@H]1C(=NNc4ccccc4)CC[C@H]4[C@@H](C2)N(C)CC[C@]314 [Dihydrocodeinone phenylhydrazone]
OUT: 5

IN: // query residual tritiated specific bonds of Naloxon value for entry CN1CC[C@]23c4c5ccc(O)c4O[C@H]2C(=NNC(N)=S)CC[C@H]3[C@H]1C5 [Dihydromorphinone thiosemicarbazone]
OUT: 19

* * *

- Tested on: opiate receptors
- Test name: Competition for tritiated Naloxon specific binding in rat brain membrane preparates
- Reported conditions: compound concentration 10⁻⁷ mol; tritiated Naloxon bond (1 nanomole) taken as 100 %
residual tritiated specific bonds of Naloxon: recorded values

The following molecules have reported results that may help.
Molecule | Result value
CN1CC[C@]23c4c5ccc(O)c4O[C@H]2C(=NNc2ccc([N+](=O)[O-])cc2[N+](=O)[O-])CC[C@@]3(O)[C@H]1C5 [Oxymorphone dinitrophenylhydrazone] | 33±1%
COc1ccc2c3c1O[C@H]1C(=NNC(N)=O)CC[C@H]4[C@@H](C2)N(C)CC[C@]314 [Dihydrocodeinone semicarbazone] | 43±4%
COc1ccc2c3c1O[C@H]1C(=NN)C=C[C@@]4(O)[C@@H](C2)N(C)CC[C@]314 [Oxycodeinone hydrazone, 14-OH-codeinone hydrazone] | 92±25%

IN: Any idea what residual tritiated specific bonds of Naloxon came out for CN1CC[C@]23c4c5ccc(O)c4O[C@H]2C(=NNc2ccccc2)CC[C@H]3[C@H]1C5 [Dihydromorphinone phenylhydrazone] on opiate receptors?
OUT: 4±5%

IN: Any idea what residual tritiated specific bonds of Naloxon came out for CN1CC[C@]23c4c5ccc(O)c4O[C@H]2C(=NNC(N)=S)CC[C@H]3[C@H]1C5 [Dihydromorphinone thiosemicarbazone] on opiate receptors?
OUT: 16±5%

IN: Any idea what residual tritiated specific bonds of Naloxon came out for CN1CC[C@]23c4c5ccc(O)c4O[C@H]2C(=NNc2ccc([N+](=O)[O-])cc2[N+](=O)[O-])CC[C@H]3[C@H]1C5 [Dihydromorphinone dinitrophenylhydrazone] on opiate receptors?
OUT: 17±2%

* * *

- Test system: opiate receptors
- Test name: Competition for tritiated Naloxon specific binding in rat brain membrane preparates
- Reported conditions: compound concentration 10⁻⁷ mol; tritiated Naloxon bond (1 nanomole) taken as 100 %
- Text: The effect of the 10⁻⁷ and 10⁻⁵ M concentration of the compounds was examined to tritiated Naloxon bond in rat brain membrane preparates. […] If the inhibition is high, i.e. the value of the specific bond of the labelled Naloxon is low, the compounds bind to the opiate receptors with high affinity. […] The specific radioactivity of the labelled Naloxon was 72.4 Ci/mmole [G. Töth, M. Kramer, F. Sirokmán, A. Borsodi, A. Rónai: J. Label. […]
Measurement kind: residual tritiated specific bonds of Naloxon (%)
Could you give me the number in %? Just the number is fine.

Compound | Result value
COc1ccc2c3c1O[C@H]1C(=NNc4ccccc4)CC[C@H]4[C@@H](C2)N(C)CC[C@]314 [Dihydrocodeinone phenylhydrazone] | 75
CN1CC[C@]23c4c5ccc(O)c4O[C@H]2C(=NNC(N)=O)CC[C@H]3[C@H]1C5 [Dihydromorphinone semicarbazone] | 69

IN: // query residual tritiated specific bonds of Naloxon value for entry CN1CC[C@]23c4c5ccc(O)c4O[C@H]2C(=NNC(N)=S)CC[C@@]3(O)[C@H]1C5 [Oxymorphone thiosemicarbazone, 14-OH dihydromorphine thiosemicarbazone]
OUT: 37
